molecular target: T1, human CD3E&G complex (Sino Biological Inc., CT041-H0305H) (human, UniProt P07766 23-126; P09693 23-116); assay: BLI, antibody on sensor
T1 construct: bought heterodimer; also called human CD3E&G antigen
T1 sequence (P07766 23-126, chain 1 of 2): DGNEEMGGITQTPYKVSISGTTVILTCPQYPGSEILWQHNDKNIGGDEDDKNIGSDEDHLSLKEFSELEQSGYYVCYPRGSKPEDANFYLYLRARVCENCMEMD
T1 sequence (P09693 23-116, chain 2 of 2): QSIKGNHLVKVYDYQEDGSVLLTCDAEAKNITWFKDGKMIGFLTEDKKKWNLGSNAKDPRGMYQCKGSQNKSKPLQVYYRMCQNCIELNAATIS
Listed here are binders together with their documented koff.
Respond with the bare value in s⁻¹.

// known answers, use as guide
{"columns": ["Binder", "Test Result"],
 "data": [
  ["hzsp34.108 (antibody, human IgG1, lambda, L234A L235A, V domains shown, CDR mutant of hzsp34.24; IgG1 L234A L235A, lambda) VH: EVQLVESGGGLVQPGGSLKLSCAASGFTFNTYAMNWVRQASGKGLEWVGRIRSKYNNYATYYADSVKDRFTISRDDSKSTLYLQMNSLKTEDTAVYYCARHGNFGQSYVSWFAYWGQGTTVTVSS VL: QAVVTQEPSLTVSPGGTVTLTCRSSTGAVTTSNYANWVQQKPGQAPRGLIGGTNKRAPGVPARFSGSLLGDKAALTLLGAQPEDEAEYYCALWASNLWVFGQGTKLTVLG", 0.00146],
  ["hzsp34.97 (antibody, human IgG1, lambda, L234A L235A, V domains shown, CDR mutant of hzsp34.24; IgG1 L234A L235A, lambda) VH: EVQLVESGGGLVQPGGSLKLSCAASGFTFNTYAMNWVRQASGKGLEWVGRIRSKAGGYATYYADSVKDRFTISRDDSKSTLYLQMNSLKTEDTAVYYCARHGNFGQSYVSWFAYWGQGTTVTVSS VL: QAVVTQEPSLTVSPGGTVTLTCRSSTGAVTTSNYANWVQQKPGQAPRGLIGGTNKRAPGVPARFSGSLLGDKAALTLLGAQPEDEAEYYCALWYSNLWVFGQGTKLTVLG", 0.00148],
  ["hzsp34.103 (antibody, human IgG1, lambda, L234A L235A, V domains shown, CDR mutant of hzsp34.24; IgG1 L234A L235A, lambda) VH: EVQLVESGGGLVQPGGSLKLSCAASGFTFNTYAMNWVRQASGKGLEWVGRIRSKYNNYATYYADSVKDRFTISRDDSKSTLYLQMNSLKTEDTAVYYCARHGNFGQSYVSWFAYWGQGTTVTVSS VL: QAVVTQEPSLTVSPGGTVTLTCRSSTGAVGTSNYANWVQQKPGQAPRGLIGGTNKRAPGVPARFSGSLLGDKAALTLLGAQPEDEAEYYCALWYSNLWVFGQGTKLTVLG", 0.00191],
  ["hzsp34.92 (antibody, human IgG1, lambda, L234A L235A, V domains shown, CDR mutant of hzsp34.24; IgG1 L234A L235A, lambda) VH: EVQLVESGGGLVQPGGSLKLSCAASGFTFNTYAMNWVRQASGKGLEWVGRIRSKYNNYATYYADSVKDRFTISRDDSKSTLYLQMNSLKTEDTAVYYCARHGNFGQRYVSWFAYWGQGTTVTVSS VL: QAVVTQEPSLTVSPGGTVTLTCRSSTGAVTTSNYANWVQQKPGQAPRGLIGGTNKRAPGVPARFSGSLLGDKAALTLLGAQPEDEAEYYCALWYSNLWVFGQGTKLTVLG", 0.00101]
]}

Okay, now this binder:
Fill in the blank: the reported koff of hzsp34.79 (antibody, human IgG1, lambda, L234A L235A, V domains shown, CDR mutant of hzsp34.24; IgG1 L234A L235A, lambda) VH: EVQLVESGGGLVQPGGSLKLSCAASGFTFNGYAMNWVRQASGKGLEWVGRIRSKYNNYATYYADSVKDRFTISRDDSKSTLYLQMNSLKTEDTAVYYCARHGNFGQSYVSWFAYWGQGTTVTVSS VL: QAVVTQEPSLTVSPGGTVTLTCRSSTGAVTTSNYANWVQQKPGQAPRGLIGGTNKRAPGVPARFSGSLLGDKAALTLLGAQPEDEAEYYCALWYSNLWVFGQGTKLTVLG is ____.
0.00154
